Target: UniProtKB Q8NG66
Sequence (Q8NG66 whole entry, looked up): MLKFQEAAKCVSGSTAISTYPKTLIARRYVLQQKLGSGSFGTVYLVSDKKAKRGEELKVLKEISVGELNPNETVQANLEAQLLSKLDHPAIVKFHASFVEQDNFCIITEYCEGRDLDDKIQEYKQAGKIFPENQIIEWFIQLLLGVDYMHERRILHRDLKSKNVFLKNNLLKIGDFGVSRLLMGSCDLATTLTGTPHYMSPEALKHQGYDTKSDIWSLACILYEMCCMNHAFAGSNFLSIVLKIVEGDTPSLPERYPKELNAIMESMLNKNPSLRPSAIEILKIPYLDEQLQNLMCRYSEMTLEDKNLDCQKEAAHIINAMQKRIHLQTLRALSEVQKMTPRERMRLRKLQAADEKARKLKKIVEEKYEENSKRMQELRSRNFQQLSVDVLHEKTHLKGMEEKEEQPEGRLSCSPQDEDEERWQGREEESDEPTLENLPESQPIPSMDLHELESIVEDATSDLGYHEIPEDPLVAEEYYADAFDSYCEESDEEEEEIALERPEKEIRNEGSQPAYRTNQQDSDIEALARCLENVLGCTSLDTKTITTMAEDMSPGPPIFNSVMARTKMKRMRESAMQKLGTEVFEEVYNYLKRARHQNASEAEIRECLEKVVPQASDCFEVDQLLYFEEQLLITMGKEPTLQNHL
Assay: radiometric filter-binding kinase assay, Kinase HotSpot
Settings: compound 0.5 µM; ATP 10 µM
endpoint name: residual activity (%)
Please respond with the number in % and leave the unit unwritten.

Please review the following examples before continuing.
[
  {
    "smi": "CCc1nc(-c2ccc(OC)cc2)[nH]c1-c1ccncc1",
    "endpoint name": "residual activity",
    "quantitative result": 77.4
  },
  {
    "smi": "CCOc1cc2ncnc(Nc3cccc(Br)c3)c2cc1OCC",
    "endpoint name": "residual activity",
    "quantitative result": 103
  }
]

Note down residual activity recorded for N/C(=N\N=C/c1ccc(-c2cccc([N+](=O)[O-])c2)o1)N[N+](=O)[O-]
110

Output residual activity of N#C/C(=C1/Nc2ccccc2S1)c1ccnc(NCCc2cccnc2)n1
118

Look up and report measured residual activity for this entry: O=c1cc(N2CCOCC2)oc2c(-c3ccccc3)cccc12
102

Give me measured residual activity, please, for this molecule: O=C(c1ccccc1)c1ccc(N2CCOCC2)cc1O
97.7

Report residual activity for N#CCCc1ccc2c(c1)-c1[nH]c3ccc([N+](=O)[O-])cc3c1CC(=O)N2
101

Give recorded residual activity. N#Cc1c(NC(=O)c2cccc3ccccc23)sc2c1CCCC2
105

State, in one line, measured residual activity of FC(F)(F)c1ccc(/C=C/c2nc(COc3ccc(CCCCn4ccnn4)cc3)co2)cc1
97.6

Given the molecule COc1cc2c(cc1OC)-c1[nH]nc(Nc3cccc(F)c3)c1C2 , write its reported residual activity.
98.9

Please give the documented residual activity of O=S(=O)(NCCNC/C=C/c1ccc(Br)cc1)c1cccc2cnccc12
92.7

Report residual activity, nothing else, for this molecule: COc1cccc(-c2cc(=O)c3ccccc3o2)c1N
92.9

Specify reported residual activity for the molecule shown: O=c1c(-c2ccc(F)cc2)c(-c2ccncc2)[nH]n1-c1ccc(Cl)cc1
104

Specify reported residual activity for the molecule shown: Cc1cc(Nc2nc(-c3ccccc3)nc3ccccc23)n[nH]1
105

Cited source: the kinase profiling compilation of Christmann-Franck et al. (2016)
